- Species on record: Rattus norvegicus
- EXPERIMENT SUMMARY: Open TG-GATES - Regimen: Daily Repeat
- Format: toxicity, organism-based, Sprague-Dawley
- Set-up: regimen Daily Repeat, gender Male, age 6 weeks
- EXPERIMENTAL CONDITIONS: in vivo, po, 0 mg/kg, 72 h, tissue Plasma, route gavage, dose level Control, time 3 day
Quick reference: BUN of the listed items.

COMPOUND: CNC(=C[N+](=O)[O-])NCCSCc1ccc(CN(C)C)o1
BUN: 16.6 mg/dL

COMPOUND: Brc1ccccc1
BUN: 14.8 mg/dL

COMPOUND: NC1=NC(=O)C(c2ccccc2)O1 (stereo not drawn)
BUN: 14.8 mg/dL

Each recorded value in this set is attributed to ChEMBL document CHEMBL3885861.
